- Test System: T1, LAG-3_D3D4-His: 3rd and 4th extracellular immunoglobulin-like domains (263-450) of human LAG-3 with … (UniProt P18627 263-450)
- T1 chain: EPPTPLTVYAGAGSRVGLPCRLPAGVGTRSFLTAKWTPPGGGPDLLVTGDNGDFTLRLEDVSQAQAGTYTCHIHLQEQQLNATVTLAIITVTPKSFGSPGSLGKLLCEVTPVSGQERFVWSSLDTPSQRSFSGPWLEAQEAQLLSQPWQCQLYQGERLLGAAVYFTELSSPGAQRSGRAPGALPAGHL
- Protocol: SPR (Biacore T200)
Measured Endpoint: pKd
By convention, pKd is the negative base-10 log of a molar concentration.

What value of measured pKd is listed for humanized anti-human LAG-3 antibody hLA212_H3/L5 (antibody, human IgG1, kappa, V domains shown, Human IgG1/kappa; also called humanized hLA212_H3/L5) VH: EVQLVESGGGLVQPGGSLRLSCAASGFTYRSYVMAWVRQAPGKGLEWVASISTGGGNTYYRDSVKGRFTISRDNAKNTLYLQMDSLRAEDTAVYYCAEDMSNSGYGLFDYWGQGTLVTVSS VL: NIQMTQSPSSMSISVGDRVTMTCKAGQNVDNNIAWYQKKPGQSPKLLIYYASNRNTGVPDRFSGGGYGTDFTLTISSVQPEDAAFYYCQRISNSPYTFGQGTKLELKR ?
10.00

Where these numbers come from: patent US20200262917A1
